Some compounds, each annotated with its measured normalized growth.
# experiment_description: chemical genetic growth profiling, strain panel (AID 1159580);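 also: tested at 20 µM; growth read once vehicle control cultures reached saturation at 30 °C; 1 = growth at the plate median or of vehicle wells; lower values mean less growth of the strain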
# condition_details: S. cerevisiae deletion strains, growth OD, locus YDR388W, stronger effect = lower value
Hit rate of the full screen: of about 5,500 compounds, about 2,000 (36%) were called active. Not shown: some 18% with an inconclusive outcome. The list shows a part of the results.
API doc: respond with a numeric literal and nothing else, no unit.

Observe how each entry below is paired with its result.
compound: C=CC(C1=CC(=O)C(OC)=CC1=O)c1ccc(O)cc1 (stereo not drawn)
outcome_measure: normalized growth
measured_value: 0.964
--
compound: COc1cc2c(c(OC)c1OC)-c1ccc(O)c(=O)cc1[C@@H](NC(C)=O)CC2
outcome_measure: normalized growth
measured_value: 1
--
compound: CCN(CC)CCOc1ccc2c(c1)C(=O)c1cc(OCCN(CC)CC)ccc1-2
outcome_measure: normalized growth
measured_value: 0.983
--
compound: C1CCN2C[C@@H]3C[C@H](CN4CCCC[C@@H]34)[C@H]2C1
outcome_measure: normalized growth
measured_value: 0.994
--
compound: C=CC(C1=CC(=O)C=CC1=O)c1ccccc1 (stereo not drawn)
outcome_measure: normalized growth
measured_value: 0.991

In: State the recorded normalized growth for this entry: CO[C@H]1/C=C/O[C@@]2(C)Oc3c(C)c(O)c4c(O)c(c(/C=N/N5CCN(C)CC5)c(O)c4c3C2=O)NC(=O)/C(C)=C\C=C\C(C)[C@H](O)[C@@H](C)[C@@H](O)[C@@H](C)[C@@H](OC(C)=O)[C@@H]1C (stereo partly drawn)
Out: 1.02

In: State the recorded normalized growth for this entry: CCCCC1=NC2(CCCC2)C(=O)N1Cc1ccc(-c2ccccc2-c2nn[nH]n2)cc1
Out: 0.999

In: State the recorded normalized growth for this entry: O=C(O)CF
Out: 0.989
